- MEASUREMENT PARAMETERS: in n-propanol, 298 K

COMPOUND SMILES | solubility (mole fraction)
CC[C@H](C)C(=O)O[C@H]1C[C@H](O)C=C2C=C[C@H](C)[C@H](CC[C@@H](O)C[C@@H](O)CC(=O)[O-])[C@H]21.[Na+] | 0.00238

----------
- MEASUREMENT PARAMETERS: in water, 283 K

COMPOUND SMILES | solubility (mole fraction)
CC[C@H](C)C(=O)O[C@H]1C[C@H](O)C=C2C=C[C@H](C)[C@H](CC[C@@H](O)C[C@@H](O)CC(=O)[O-])[C@H]21.[Na+] | 0.0119

----------
- MEASUREMENT PARAMETERS: in isopropanol, 283 K
MEASURED PROPERTY: solubility (mole fraction)

COMPOUND SMILES | REPORTED RESULT
CC[C@H](C)C(=O)O[C@H]1C[C@H](O)C=C2C=C[C@H](C)[C@H](CC[C@@H](O)C[C@@H](O)CC(=O)[O-])[C@H]21.[Na+] | 0.000684

----------
- MEASUREMENT PARAMETERS: in n-propanol, 308 K

COMPOUND SMILES | solubility (mole fraction)
CC[C@H](C)C(=O)O[C@H]1C[C@H](O)C=C2C=C[C@H](C)[C@H](CC[C@@H](O)C[C@@H](O)CC(=O)[O-])[C@H]21.[Na+] | 0.00343

----------
- MEASUREMENT PARAMETERS: in water, 298 K

COMPOUND SMILES | solubility (mole fraction)
CC[C@H](C)C(=O)O[C@H]1C[C@H](O)C=C2C=C[C@H](C)[C@H](CC[C@@H](O)C[C@@H](O)CC(=O)[O-])[C@H]21.[Na+] | 0.0285

----------
- MEASUREMENT PARAMETERS: in isopropanol, 327.9 K
MEASURED PROPERTY: solubility (mole fraction)

COMPOUND SMILES | REPORTED RESULT
CC[C@H](C)C(=O)O[C@H]1C[C@H](O)C=C2C=C[C@H](C)[C@H](CC[C@@H](O)C[C@@H](O)CC(=O)[O-])[C@H]21.[Na+] | 0.0019

----------
- MEASUREMENT PARAMETERS: in water, 323 K

COMPOUND SMILES | solubility (mole fraction)
CC[C@H](C)C(=O)O[C@H]1C[C@H](O)C=C2C=C[C@H](C)[C@H](CC[C@@H](O)C[C@@H](O)CC(=O)[O-])[C@H]21.[Na+] | 0.0642

----------
- MEASUREMENT PARAMETERS: in water, 293 K
MEASURED PROPERTY: solubility (mole fraction)

COMPOUND SMILES | REPORTED RESULT
CC[C@H](C)C(=O)O[C@H]1C[C@H](O)C=C2C=C[C@H](C)[C@H](CC[C@@H](O)C[C@@H](O)CC(=O)[O-])[C@H]21.[Na+] | 0.0216

----------
- MEASUREMENT PARAMETERS: in n-propanol, 313 K
MEASURED PROPERTY: solubility (mole fraction)

COMPOUND SMILES | REPORTED RESULT
CC[C@H](C)C(=O)O[C@H]1C[C@H](O)C=C2C=C[C@H](C)[C@H](CC[C@@H](O)C[C@@H](O)CC(=O)[O-])[C@H]21.[Na+] | 0.00449

----------
- MEASUREMENT PARAMETERS: in ethanol, 298 K
MEASURED PROPERTY: solubility (mole fraction)

COMPOUND SMILES | MEASURED PROPERTY | REPORTED RESULT
CC[C@H](C)C(=O)O[C@H]1C[C@H](O)C=C2C=C[C@H](C)[C@H](CC[C@@H](O)C[C@@H](O)CC(=O)[O-])[C@H]21.[Na+] | solubility (mole fraction) | 0.00406

----------
- MEASUREMENT PARAMETERS: in ethanol, 288 K

COMPOUND SMILES | solubility (mole fraction)
CC[C@H](C)C(=O)O[C@H]1C[C@H](O)C=C2C=C[C@H](C)[C@H](CC[C@@H](O)C[C@@H](O)CC(=O)[O-])[C@H]21.[Na+] | 0.00346

----------
- MEASUREMENT PARAMETERS: in n-butanol, 283 K
MEASURED PROPERTY: solubility (mole fraction)

COMPOUND SMILES | REPORTED RESULT
CC[C@H](C)C(=O)O[C@H]1C[C@H](O)C=C2C=C[C@H](C)[C@H](CC[C@@H](O)C[C@@H](O)CC(=O)[O-])[C@H]21.[Na+] | 0.00118

----------
- MEASUREMENT PARAMETERS: in ethanol, 278 K

COMPOUND SMILES | solubility (mole fraction)
CC[C@H](C)C(=O)O[C@H]1C[C@H](O)C=C2C=C[C@H](C)[C@H](CC[C@@H](O)C[C@@H](O)CC(=O)[O-])[C@H]21.[Na+] | 0.0031

----------
- MEASUREMENT PARAMETERS: in isopropanol, 303 K

COMPOUND SMILES | solubility (mole fraction)
CC[C@H](C)C(=O)O[C@H]1C[C@H](O)C=C2C=C[C@H](C)[C@H](CC[C@@H](O)C[C@@H](O)CC(=O)[O-])[C@H]21.[Na+] | 0.00103

----------
- MEASUREMENT PARAMETERS: in methanol, 277.8 K
MEASURED PROPERTY: solubility (mole fraction)

COMPOUND SMILES | MEASURED PROPERTY | REPORTED RESULT
CC[C@H](C)C(=O)O[C@H]1C[C@H](O)C=C2C=C[C@H](C)[C@H](CC[C@@H](O)C[C@@H](O)CC(=O)[O-])[C@H]21.[Na+] | solubility (mole fraction) | 0.0225

----------
- MEASUREMENT PARAMETERS: in water, 278.4 K

COMPOUND SMILES | solubility (mole fraction)
CC[C@H](C)C(=O)O[C@H]1C[C@H](O)C=C2C=C[C@H](C)[C@H](CC[C@@H](O)C[C@@H](O)CC(=O)[O-])[C@H]21.[Na+] | 0.00911

----------
- MEASUREMENT PARAMETERS: in water, 303 K
MEASURED PROPERTY: solubility (mole fraction)

COMPOUND SMILES | REPORTED RESULT
CC[C@H](C)C(=O)O[C@H]1C[C@H](O)C=C2C=C[C@H](C)[C@H](CC[C@@H](O)C[C@@H](O)CC(=O)[O-])[C@H]21.[Na+] | 0.0343

----------
- MEASUREMENT PARAMETERS: in n-propanol, 288 K

COMPOUND SMILES | solubility (mole fraction)
CC[C@H](C)C(=O)O[C@H]1C[C@H](O)C=C2C=C[C@H](C)[C@H](CC[C@@H](O)C[C@@H](O)CC(=O)[O-])[C@H]21.[Na+] | 0.00219

----------
- MEASUREMENT PARAMETERS: in n-butanol, 293 K
MEASURED PROPERTY: solubility (mole fraction)

COMPOUND SMILES | MEASURED PROPERTY | REPORTED RESULT
CC[C@H](C)C(=O)O[C@H]1C[C@H](O)C=C2C=C[C@H](C)[C@H](CC[C@@H](O)C[C@@H](O)CC(=O)[O-])[C@H]21.[Na+] | solubility (mole fraction) | 0.00144

----------
- MEASUREMENT PARAMETERS: in n-propanol, 278 K

COMPOUND SMILES | solubility (mole fraction)
CC[C@H](C)C(=O)O[C@H]1C[C@H](O)C=C2C=C[C@H](C)[C@H](CC[C@@H](O)C[C@@H](O)CC(=O)[O-])[C@H]21.[Na+] | 0.00208

----------
- MEASUREMENT PARAMETERS: in methanol, 287.9 K

COMPOUND SMILES | solubility (mole fraction)
CC[C@H](C)C(=O)O[C@H]1C[C@H](O)C=C2C=C[C@H](C)[C@H](CC[C@@H](O)C[C@@H](O)CC(=O)[O-])[C@H]21.[Na+] | 0.027

----------
- MEASUREMENT PARAMETERS: in water, 318 K

COMPOUND SMILES | solubility (mole fraction)
CC[C@H](C)C(=O)O[C@H]1C[C@H](O)C=C2C=C[C@H](C)[C@H](CC[C@@H](O)C[C@@H](O)CC(=O)[O-])[C@H]21.[Na+] | 0.0553

----------
- MEASUREMENT PARAMETERS: in n-butanol, 313 K
MEASURED PROPERTY: solubility (mole fraction)

COMPOUND SMILES | REPORTED RESULT
CC[C@H](C)C(=O)O[C@H]1C[C@H](O)C=C2C=C[C@H](C)[C@H](CC[C@@H](O)C[C@@H](O)CC(=O)[O-])[C@H]21.[Na+] | 0.0029
